// data source = patent US11690816B2

Experiment: AUC and CMax values dependent on the doses used
Conditions: human, in vivo, oral; 0.75 g dose
QUANTITY MEASURED: Cmax (ng/mL)
Numbers only here, please. The scale is ng/mL.

Reported Cmax ( O=C(O)CCCO [sodium oxybate] ) = 23000

* * *

Test: AUC and CMax values dependent on the doses used
Conditions: human, in vivo, oral; 1.25 g dose
QUANTITY MEASURED: Cmax

Reported Cmax ( O=C(O)CCCO [sodium oxybate] ) = 39000 ng/mL

* * *

Test: AUC and CMax values dependent on the doses used
Details: human, in vivo, oral; 1.25 g dose
QUANTITY MEASURED: AUC(0-t) (ng·h/mL)
Numbers only here, please. The scale is ng·h/mL.

Reported AUC(0-t) ( O=C(O)CCCO [sodium oxybate] ) = 50000

* * *

Assay: AUC and CMax values dependent on the doses used
Conditions: human, in vivo, oral; 0.37 g dose
QUANTITY MEASURED: AUC(0-t) (ng·h/mL)
Numbers only here, please. The scale is ng·h/mL.

Reported AUC(0-t) ( O=C(O)CCCO [sodium oxybate] ) = 14800

* * *

Test: AUC and CMax values dependent on the doses used
Conditions: human, in vivo, oral; 0.37 g dose
QUANTITY MEASURED: Cmax (µg/mL)
Numbers only here, please. The scale is µg/mL.

Reported Cmax ( O=C(O)CCCO [sodium oxybate] ) = 11.5
